Numbers sourced from patent US20120045393A1.

- ASSAYED SYSTEM: LHRH receptor (LHRH binding sites) on EFO-27 human ovarian cancer cells (human)
- ASSAY PROCEDURE: competition with [125I-Tyr8]BRU-2477 for binding to EFO-27 cells
QUANTITY KIND: pEC50
Lab note — pEC50 values are minus log10 of concentrations in M.

Record XHWSHXWXPX (as printed: DO3A10CM-Sar-His-Trp-Ser-His-Darg-Trp-Nal2-Pro-azaGly-NH2) [BRU-2624] , field pEC50: 5.70
